# System under test: rat GluN1/GluN2D (Rattus norvegicus)
# Construct: expressed in transfected cells; host or cells: Xenopus laevis oocytes (cRNA injection, GluN1/GluN2 ratio 1:2)
# Sequence (Q62645 28-1323, other chains not shown): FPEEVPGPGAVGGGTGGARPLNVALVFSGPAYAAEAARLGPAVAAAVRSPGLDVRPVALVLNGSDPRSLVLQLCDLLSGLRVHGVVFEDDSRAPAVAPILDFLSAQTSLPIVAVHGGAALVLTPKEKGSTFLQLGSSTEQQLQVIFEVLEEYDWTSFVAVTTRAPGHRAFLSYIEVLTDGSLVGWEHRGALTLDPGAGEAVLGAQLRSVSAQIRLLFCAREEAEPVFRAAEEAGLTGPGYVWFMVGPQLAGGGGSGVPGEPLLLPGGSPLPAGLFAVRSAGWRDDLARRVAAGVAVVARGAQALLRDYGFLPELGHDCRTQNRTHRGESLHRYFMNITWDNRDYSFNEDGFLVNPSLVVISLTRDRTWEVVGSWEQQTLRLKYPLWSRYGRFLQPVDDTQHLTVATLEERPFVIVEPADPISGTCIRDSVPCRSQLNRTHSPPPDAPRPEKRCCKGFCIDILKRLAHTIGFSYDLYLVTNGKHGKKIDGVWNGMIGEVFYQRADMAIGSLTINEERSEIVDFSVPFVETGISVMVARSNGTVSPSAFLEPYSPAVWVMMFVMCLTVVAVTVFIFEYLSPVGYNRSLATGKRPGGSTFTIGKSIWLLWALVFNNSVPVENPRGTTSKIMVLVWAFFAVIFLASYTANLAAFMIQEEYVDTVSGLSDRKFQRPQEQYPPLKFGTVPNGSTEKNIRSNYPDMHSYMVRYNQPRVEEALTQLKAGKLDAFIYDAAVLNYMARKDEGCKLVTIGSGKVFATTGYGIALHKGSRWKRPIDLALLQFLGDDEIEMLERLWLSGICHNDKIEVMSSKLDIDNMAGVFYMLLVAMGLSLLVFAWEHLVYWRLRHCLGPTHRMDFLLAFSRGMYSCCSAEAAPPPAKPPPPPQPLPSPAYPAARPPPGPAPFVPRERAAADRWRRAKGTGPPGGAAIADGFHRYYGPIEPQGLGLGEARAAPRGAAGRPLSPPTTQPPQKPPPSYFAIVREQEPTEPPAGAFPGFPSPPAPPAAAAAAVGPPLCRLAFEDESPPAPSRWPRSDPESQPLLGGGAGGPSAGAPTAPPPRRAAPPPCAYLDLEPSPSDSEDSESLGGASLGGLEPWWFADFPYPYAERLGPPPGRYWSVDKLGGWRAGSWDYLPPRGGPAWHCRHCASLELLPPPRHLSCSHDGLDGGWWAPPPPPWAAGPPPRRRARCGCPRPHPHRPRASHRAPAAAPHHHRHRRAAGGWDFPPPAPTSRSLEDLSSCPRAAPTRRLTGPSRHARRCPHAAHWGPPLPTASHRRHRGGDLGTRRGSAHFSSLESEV
# Procedure summary: Two-electrode voltage-clamp recording in Xenopus laevis oocytes expressing recombinant rat GluN1/GluN2D
# Assay type: cell-based
# Conditions: ratio of GluN2B IC50 to GluN2D IC50
The entries below are paired with their reported Subunit Selectivity 2B IC50/2D IC50.
Quick one: just the number, no unit, thanks!

Study these solved cases before continuing.
Compound	Subunit Selectivity 2B IC50/2D IC50
O=C(CCc1nnn[nH]1)N1N=C(c2c(-c3ccc(Cl)cc3)c3ccccc3[nH]c2=O)CC1c1ccc(Cl)cc1 (stereo not shown) [Compound 109]	56
O=C(O)CC(F)(F)C(=O)N1N=C(c2c(-c3ccc(Br)cc3)c3ccsc3[nH]c2=O)CC1c1ccc(Cl)cc1 (stereo not shown) [57(a)]	44
O=C(O)CC(F)(F)C(=O)N1N=C(c2c(-c3ccc(Cl)cc3)c3cccnc3[nH]c2=O)CC1c1ccc(Cl)cc1 (stereo not shown) [Compound 88]	52

Please look at the following compound next.
## Task Need Subunit Selectivity 2B IC50/2D IC50, item Cc1cc(-c2ccc(Cl)cc2)c(C2=NN(C(=O)C(F)(F)CC(=O)O)C(c3ccc(Cl)cc3)C2)c(=O)[nH]1 (stereo not shown) [Compound 55]
## Result 3

Cited source: patent US20240217979A1
